Target of assay: T1, Recombinant Human DLL3 Protein (amino acids Ala27-Ala479, cat #9749-DL, R&D Systems) (human, UniProt Q9NYJ7 27-479)
T1 construct: Bought protein
T1 sequence: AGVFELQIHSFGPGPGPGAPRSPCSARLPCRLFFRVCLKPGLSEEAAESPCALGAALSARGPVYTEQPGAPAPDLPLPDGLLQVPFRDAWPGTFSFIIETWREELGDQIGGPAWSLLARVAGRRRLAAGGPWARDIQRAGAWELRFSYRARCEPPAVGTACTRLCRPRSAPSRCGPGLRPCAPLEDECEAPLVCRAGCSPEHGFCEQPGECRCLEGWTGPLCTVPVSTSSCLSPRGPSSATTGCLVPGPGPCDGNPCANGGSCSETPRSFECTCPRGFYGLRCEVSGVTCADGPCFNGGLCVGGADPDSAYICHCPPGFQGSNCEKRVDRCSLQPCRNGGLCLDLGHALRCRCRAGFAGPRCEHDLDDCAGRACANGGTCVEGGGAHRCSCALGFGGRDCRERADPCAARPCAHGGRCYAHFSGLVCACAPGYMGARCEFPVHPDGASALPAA
Experimental protocol: BLI, Octet HTX, 25 C; mAb on anti-mouse Fc sensors, DLL3 as analyte from 200 nM
Endpoint name: pKd
In textbook form, pKd equals minus log to base ten of the concentration in mol/L.

{"Binder": "G16 (antibody, V domains shown, Purified hybridoma monoclonal antibody; loaded on anti-mouse Fc sensors in BLI) VH: QVQLVQSGAEVKKPGASVQVSCKASGYTFTSYYMHWVRQAPGQGLEWMGIINPSGGSTSYAQKFQGRVTMTRDTSTSTVYMELSSLRSEDTAVYYCARQGGAQWLVLAFDIWGQGTMVTVSS VL: EIVLTQSPGTLSLSPGERATLSCRASQSVSSYLAWYQQKPGQAPRLLIYGASSRATGIPDRFSGGGSGTDFTLTISRLEPEDFAVYYCQQYGSSPYTFGQGTKLEIK", "pKd": 8.31}
{"Binder": "F9 (antibody, V domains shown, also called 1F9) VH: QVQLVQSGAEVKKPGASVQVSCKASGYTFTSYYMHWVRQAPGQGLEWMGIINPSGGSTSYAQKFQGRVTMTRDTSTSTVYMELSSLRSEDTAVYYCARQGGAQWLVLAFDIWGQGTMVTVSS VL: EIVLTQSPGTLSLSPGERATLSCRASQSVSSYLAWYQQKPGQPPRLLIYGASSRATGIPDRFSGGGSGTDFTLTISRLEPEDFAVYYCQQYDSSPYTFGQGTKLEIK", "pKd": 8.52}

[ask] Fill in: pKd of J8 (antibody, V domains shown) VH: QVHLVQSGAEVKKPGASVKVSCKASGYTFTIYYIHWVRQAPGQGLEWMGIINPSGGSTSYAQKFQGRVTMTRDTSTSTVYMELSSLRSEDTAVYYCSGNDYVDYVTTDYYGMDVWGQGTTVTVSS VL: DIQMTQSPSSLSASVGDRVTITCRASQGISNYLAWFQQKPGKAPKSLIYAASSLQSGVPSKFSGSGSGTDFTLTISSLQPEDFATYYCQQYNSSPYTFGQGTKLEIK is ___
[reply] 12.00

[ask] Fill in: pKd of A18 (antibody, V domains shown, Purified hybridoma monoclonal antibody) VH: QVTLRESGPALVKSTQTLTLTCTFSGFSLSTSGMCVSWIRQTPGKALEWLALIDWDDNKYYSTSLKTRLIISKDTSKNQVVLTMTNMEPVDTATYYCARIRGYSGSYDAFDIWGQGTMVTVSS VL: DIVMTQSPLSLPVTPGEPASISCRSSQSLLHSNGYNYLDWYLQKPGQSPHILLYLGSNRAPGVPDRFSGSGSGTDFTLKISRVEAEDVGVYYCMQALQTPFTFGPGTKVDIK is ___
[reply] 9.63

Ref: patent US20240216557A1
